experiment: osmotic lysis modulators in infected erythrocytes, primary screen, PSAC antagonist project, cell-based, P. falciparum Indochina, OD700, 3 h (AID 1156); conditions: higher = more signal, called active from +8 up or from −8 down
Recorded z-score split into classes b0: < -0.3; b1: ≥ -0.3 and < 1; b2: ≥ 1

# example entries with known answers
# MOLECULE, CLASSIFICATION
rows = [
    ("CC(C)NC(=O)[C@@H]1c2ccccc2C(=O)N(Cc2cc(F)cc(C(F)(F)F)c2)[C@H]1c1ccc(CO)cc1", "b2"),
    ("C=C(CCCC)/C(=C/C[C@@H](OC(=O)c1ccncc1)c1ccc(OCCO)cc1)c1cnc2ccccc2c1", "b2"),
    ("[N-]=[N+]=Nc1ccccc1[C@H]1OC(c2ccc(OCCCO)cc2)=N[C@@]1(Cc1ccccc1)C(N)=O", "b2"),
]

q: Class label required: "C=CCN1C(=O)[C@@]2(O[C@@H](CCn3cc(CCO)nn3)[C@H]([Si](C)(C)c3ccc(OC)cc3)[C@H]2C)c2cc(NC(=O)c3ccc(OC)cc3)ccc21"
a: b2

q: Class label required: "C[N+](C)(C)CCCC[C@@H]1NC(=O)[C@@H]2C[C@H](C(=O)NCCCCCNC(=O)CS)[C@H](c3ccc(O)cc3)N2C1=O"
a: b0

q: Class label required: "O=C1O[C@H](c2ccccc2)[C@H](c2ccccc2)N2[C@H]1[C@@H](C(=O)NC[C@H](O)c1ccccc1)[C@]1(C(=O)Nc3ccc(C#CC4(O)CCCCCC4)cc31)[C@H]2c1ccc(O)cc1"
a: b1

q: Class label required: "CC(C)(C)OC(=O)CC[C@]1(C(=O)NCc2ccccc2)COC(c2ccc(OCCCO)cc2)=N1"
a: b2
